// TGI lookup, one value per entry
Test system: TK-10 renal
Experiment: NCI tumour cell line growth inhibition, 48 h

Example entries and their recorded answers appear below.
[
  {
    "compound": "COC(=O)/C=c1/c2ccccc2n2nc3ccccc3c12",
    "endpointName": "TGI",
    "recordedValue": "> 100 µM"
  },
  {
    "compound": "CN(CCOc1ccc(C#N)cc1)CCOc1ccc(C#N)cc1",
    "endpointName": "TGI",
    "recordedValue": "> 100 µM"
  }
]

(Q) Please give the documented TGI of COc1cccc(C(=O)C2C(=O)N(C)CCc3ccccc32)c1OC (stereo not drawn)
(A) > 100 µM
